Ref: ChEMBL document CHEMBL3784969

# Procedure Summary: AUClast in patient (4 patients) with renal insufficiency at 250 mg, po administered as single dose by gas chromatography
# Type: ADME, organism-based
# Set-up: dose 250 mg, time 0 - last, route oral
# Run Conditions: human, in vivo
Reported Endpoint: AUC(0-t)

Any idea what its AUC(0-t) is? The molecule is CC(C)C(=O)Nc1ccc([N+](=O)[O-])c(C(F)(F)F)c1 [FLUTAMIDE]
0.079 µg·h/mL

###

# Procedure Summary: Tmax in patient (7 patients) with renal insufficiency at 250 mg, po administered as single dose by gas chromatography
# Type: ADME, organism-based
# Run Conditions: human, in vivo
Reported Endpoint: Tmax (h)
Answer format: numeric, h implied, no suffix.

Any idea what its Tmax is? The compound is CC(C)C(=O)Nc1ccc([N+](=O)[O-])c(C(F)(F)F)c1 [FLUTAMIDE]
1.7

###

# Procedure Summary: AUC (0 to 24 hrs) in patient (6 patients) with renal insufficiency at 250 mg, po administered as single dose 4 hrs prior to hemodialysis treatment measured at starting time of dialysis and post dialysis treatment by gas chromatography
# Format: ADME, organism-based
# Parameters: time < 24 hr, dose 250 mg, route oral
# Run Conditions: human, in vivo
Reported Endpoint: AUC(0-t) at 24 h (ng·h/mL)
Answer format: numeric, ng·h/mL implied, no suffix.

Any idea what its AUC(0-t) at 24 h is? The compound is CC(C)C(=O)Nc1ccc([N+](=O)[O-])c(C(F)(F)F)c1 [FLUTAMIDE]
217

###

# Procedure Summary: AUC (0 to 96 hrs) in patient (3 patients) with renal insufficiency at 250 mg, po administered as single dose by gas chromatography
# Assay type: ADME, organism-based
# Set-up: time < 96 hr, dose 250 mg, route oral
# Run Conditions: human, in vivo
Reported Endpoint: AUC(0-t) at 96 h

Any idea what its AUC(0-t) at 96 h is? The molecule is CC(C)C(=O)Nc1ccc([N+](=O)[O-])c(C(F)(F)F)c1 [FLUTAMIDE]
98 ng·h/mL

###

# Procedure Summary: Renal clearance in patient (6 patients) with renal insufficiency at 250 mg, po administered as single dose by gas chromatography
# Format: ADME, organism-based, Kidney
# Run Conditions: human, in vivo
Reported Endpoint: CL renal (mL/min)
Answer format: numeric, mL/min implied, no suffix.

Any idea what its CL renal is? The molecule is CC(C)C(=O)Nc1ccc([N+](=O)[O-])c(C(F)(F)F)c1 [FLUTAMIDE]
7.1
